Quick reference: kcat/Km of the listed items.
Substrate: CC1=C(C)C(=O)C(C)=C(C)C1=O
experiment-description: purified protein
Assay type: biochemical, Thiocapsa roseopersicina
test-settings: 200 µM sulfide, 50 mM Tris-HCl pH 8.0, 25 °C, anaerobic
experimental-endpoint: kcat/Km (M⁻¹ s⁻¹)

1. SqrF CTD (Thiocapsa roseopersicina) (protein, C-terminal alpha-helix deletion, stop codons after Thr356; N-terminal StrepII tag, expressed in T. roseopersicina FOQRON) MHRITIVGSGFAGLTAVQSIRRTAPDAEITLVSNKAEFIYYPGLIWVPCGIRSGEDLRIDLRPFFKRMRVRHLAGEATGLSPDGRTLETTAGPVENDGLVIGSGGRFIKKLPGIEHAITPCEGIAAAEAIRDRVKAMDGGSIAMGFAGNPNEPSSMRGGPIFEFIFGMDSQLRKEGRRDRFRLHFFTPAERPGNRLGPKAVDGILAEMKRRGIETHLGHKLKSFSESKVTTEAGEFDADLILFMPGMTGNTWFDNTDLPRSPGGLLQADAHCRVPGYERVYVAGDSGSFPGPDWMPKQAHMADLQARAAVKNLLAELQGRAPSETFKVELVCIVDANDTGMLVARTEKNNWVLPST = 14000
2. TrSqrF; SqrF WT (Thiocapsa roseopersicina; F366Y) (protein) MHRITIVGSGFAGLTAVQSIRRTAPDAEITLVSNKAEFIYYPGLIWVPCGIRSGEDLRIDLRPFFKRMRVRHLAGEATGLSPDGRTLETTAGPVENDGLVIGSGGRFIKKLPGIEHAITPCEGIAAAEAIRDRVKAMDGGSIAMGFAGNPNEPSSMRGGPIFEFIFGMDSQLRKEGRRDRFRLHFFTPAERPGNRLGPKAVDGILAEMKRRGIETHLGHKLKSFSESKVTTEAGEFDADLILFMPGMTGNTWFDNTDLPRSPGGLLQADAHCRVPGYERVYVAGDSGSFPGPDWMPKQAHMADLQARAAVKNLLAELQGRAPSETFKVELVCIVDANDTGMLVARTEKNNWVLPSTRFFHWMKLGYEWWYLRPYR = 7000
3. TrSqrF; SqrF WT (Thiocapsa roseopersicina; F366A) (protein) MHRITIVGSGFAGLTAVQSIRRTAPDAEITLVSNKAEFIYYPGLIWVPCGIRSGEDLRIDLRPFFKRMRVRHLAGEATGLSPDGRTLETTAGPVENDGLVIGSGGRFIKKLPGIEHAITPCEGIAAAEAIRDRVKAMDGGSIAMGFAGNPNEPSSMRGGPIFEFIFGMDSQLRKEGRRDRFRLHFFTPAERPGNRLGPKAVDGILAEMKRRGIETHLGHKLKSFSESKVTTEAGEFDADLILFMPGMTGNTWFDNTDLPRSPGGLLQADAHCRVPGYERVYVAGDSGSFPGPDWMPKQAHMADLQARAAVKNLLAELQGRAPSETFKVELVCIVDANDTGMLVARTEKNNWVLPSTRFFHWMKLGAEWWYLRPYR = 6000
4. TrSqrF; SqrF WT (Thiocapsa roseopersicina) (protein) MHRITIVGSGFAGLTAVQSIRRTAPDAEITLVSNKAEFIYYPGLIWVPCGIRSGEDLRIDLRPFFKRMRVRHLAGEATGLSPDGRTLETTAGPVENDGLVIGSGGRFIKKLPGIEHAITPCEGIAAAEAIRDRVKAMDGGSIAMGFAGNPNEPSSMRGGPIFEFIFGMDSQLRKEGRRDRFRLHFFTPAERPGNRLGPKAVDGILAEMKRRGIETHLGHKLKSFSESKVTTEAGEFDADLILFMPGMTGNTWFDNTDLPRSPGGLLQADAHCRVPGYERVYVAGDSGSFPGPDWMPKQAHMADLQARAAVKNLLAELQGRAPSETFKVELVCIVDANDTGMLVARTEKNNWVLPSTRFFHWMKLGFEWWYLRPYR = 46000
5. TrSqrF; SqrF WT (Thiocapsa roseopersicina; V331F) (protein) MHRITIVGSGFAGLTAVQSIRRTAPDAEITLVSNKAEFIYYPGLIWVPCGIRSGEDLRIDLRPFFKRMRVRHLAGEATGLSPDGRTLETTAGPVENDGLVIGSGGRFIKKLPGIEHAITPCEGIAAAEAIRDRVKAMDGGSIAMGFAGNPNEPSSMRGGPIFEFIFGMDSQLRKEGRRDRFRLHFFTPAERPGNRLGPKAVDGILAEMKRRGIETHLGHKLKSFSESKVTTEAGEFDADLILFMPGMTGNTWFDNTDLPRSPGGLLQADAHCRVPGYERVYVAGDSGSFPGPDWMPKQAHMADLQARAAVKNLLAELQGRAPSETFKVELFCIVDANDTGMLVARTEKNNWVLPSTRFFHWMKLGFEWWYLRPYR = 18000
6. TrSqrF; SqrF WT (Thiocapsa roseopersicina; I333F) (protein) MHRITIVGSGFAGLTAVQSIRRTAPDAEITLVSNKAEFIYYPGLIWVPCGIRSGEDLRIDLRPFFKRMRVRHLAGEATGLSPDGRTLETTAGPVENDGLVIGSGGRFIKKLPGIEHAITPCEGIAAAEAIRDRVKAMDGGSIAMGFAGNPNEPSSMRGGPIFEFIFGMDSQLRKEGRRDRFRLHFFTPAERPGNRLGPKAVDGILAEMKRRGIETHLGHKLKSFSESKVTTEAGEFDADLILFMPGMTGNTWFDNTDLPRSPGGLLQADAHCRVPGYERVYVAGDSGSFPGPDWMPKQAHMADLQARAAVKNLLAELQGRAPSETFKVELVCFVDANDTGMLVARTEKNNWVLPSTRFFHWMKLGFEWWYLRPYR = 7000
